chromatographic logP values, listed per item

| smiles.notation | chromatographic logP |
| --- | --- |
| CCCCCC[C@H]1C(=O)N[C@@]2([C@@H](O)C(C)C)C(=O)O[C@@]12C | 2.87 |
| CCCCCC[C@@H]1C(=O)N[C@@]2([C@@H](O)C(C)C)C(=O)O[C@@]12C | 2.79 |
